Kindly state MIC for each of the entries shown.
- Tested on: Enterobacter cloacae
- ASSAY_REMARKS: In vitro antibacterial activity against Enterobacter cloacae OMNFI 174
- Type: functional
Field: numeric (µg/mL). Do not append units.

Ask: Recall the reported MIC of Cc1c(N2CCc3ccccc3C2)c(N)cc2c(=O)c(C(=O)O)cn(C3CC3)c12 when tested on Enterobacter cloacae.
Result: 0.5

Ask: Name the recorded MIC of Cc1c(N2CCCCC2)c(F)cc2c(=O)c(C(=O)O)cn(C3CC3)c12 , assay system Enterobacter cloacae.
Result: 0.5

Ask: // fetch MIC; item: Cc1c(N2CCC(C)CC2)ccc2c(=O)c(C(=O)O)cn(C3CC3)c12 ; system: Enterobacter cloacae
Result: 0.25

Ask: Provide measured MIC on Enterobacter cloacae for Cc1c(N2CCCC(CO)C2)ccc2c(=O)c(C(=O)O)cn(C3CC3)c12 (stereo unspecified) please.
Result: 0.5

Ask: Give reported MIC for Cc1c(N2CCC(O)CC2)ccc2c(=O)c(C(=O)O)cn(C3CC3)c12 (Enterobacter cloacae)
Result: 0.25

Ask: Give MIC for Cc1c(N2CC(C)OC(C)C2)ccc2c(=O)c(C(=O)O)cn(C3CC3)c12 (stereo unspecified) tested on Enterobacter cloacae.
Result: 2

Ask: // output MIC; input O=C(O)c1cn(C2CC2)c2cc(N3CCCCC3)c(F)cc2c1=O ; system Enterobacter cloacae
Result: 0.5

Ask: Fill in: MIC on Enterobacter cloacae, entry Cc1c(N2CCCCC2)ccc2c(=O)c(C(=O)O)cn(C3CC3)c12
Result: 0.25

Ask: Provide MIC, system Enterobacter cloacae, entry CC(=O)O.Cc1c(N2CC[C@@H](N)C2)ccc2c(=O)c(C(=O)O)cn(C3CC3)c12
Result: 0.25

Ask: Write MIC of Cc1c(N2CCNCC2)ccc2c(=O)c(C(=O)O)cn(C3CC3)c12.Cl ; system used: Enterobacter cloacae
Result: 0.26
